Source of measurements: patent US7307063B2

# SYSTEM: hMC2-R (Homo sapiens, UniProt P41968)
# Construct: expressed in transfected cells; host or cells: HEK-293
# Sequence (P41968 whole entry): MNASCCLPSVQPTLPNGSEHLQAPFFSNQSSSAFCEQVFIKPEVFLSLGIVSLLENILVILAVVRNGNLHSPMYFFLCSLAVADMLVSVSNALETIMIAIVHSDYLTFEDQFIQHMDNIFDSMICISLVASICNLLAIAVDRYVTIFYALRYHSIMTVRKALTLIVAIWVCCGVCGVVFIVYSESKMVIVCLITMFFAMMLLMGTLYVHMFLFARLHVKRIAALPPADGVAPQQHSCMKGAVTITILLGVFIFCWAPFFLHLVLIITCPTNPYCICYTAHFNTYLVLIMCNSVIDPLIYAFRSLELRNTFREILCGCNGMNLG
# PROCEDURE_SUMMARY: Competitive binding assay of additional compounds, Table 6 hMC2-R
# PARTICULARS: 1 μM, mean of triplicate
Non-standard residues stand in square brackets, D forms with d. No end group written: not given here. Tiq = 1,2,3,4-tetrahydroisoquinoline-1-carboxylic acid; aThr = C[C@H](O)[C@H](N)C(=O)O; Ac6c = NC1(C(=O)O)CCCCC1; Nle = CCCC[C@H](N)C(=O)O
MEASUREMENT_KIND: % Inhibition of Binding hMC2-R (%)

Record excerpt, results attached:
SUBSTANCE	SYSTEM	% Inhibition of Binding hMC2-R, %
Tic-D-Phe(3′-Cl)-Arg-Trp-Cys-NH2	hMC2-R (Homo sapiens, UniProt P41968)	41
Tiq-D-Phe-Arg-Cys-Trp-NH2 (Tiq-[dF]RCW-NH2; also: metal complex)	hMC2-R (Homo sapiens, UniProt P41968)	3
1-amino-1-cyclohexane carboxyl-D-Phe-Arg-Trp-Cys-NH2 ([Ac6c][dF]RWC-NH2; N-terminus assumed; SMILES N=C(N)NCCC[C@H](NC(=O)[C@@H](Cc1ccccc1)NC(=O)C1(N)CCCCC1)C(=O)N[C@@H](Cc1c[nH]c2ccccc12)C(=O)N[C@@H](CS)C(N)=O)	hMC2-R (Homo sapiens, UniProt P41968)	0
Aic-D-Phe-Arg-Trp-Cys-NH2	hMC2-R (Homo sapiens, UniProt P41968)	4

[1] allo-Thr-D-Phe-Arg-Cys-Trp-NH2 ([aThr][dF]RCW-NH2; also: metal complex)
[2] Ac-Nle-Ala-Ala-D-Phe-Arg-Cys-Trp-NH2 (Ac-[Nle]AA[dF]RCW-NH2; not fully specified; printed as Ac-Nle-Ala-Ala-D-Phe-Arg-Cys-Trp-NH2)
[3] Tic-D-Phe(2′-Cl)-Arg-Trp-Cys-NH2
[4] Ac-Nle-Ala-His-D-Phe-Arg-D-Nal 1′-Cys-NH2
[5] 3′-Br Phenyl acetyl-Arg-Arg-D-Bip-Cys-Bip-NH2
Kindly order the items shown according to % Inhibition of Binding hMC2-R, from the highest value down. # output: labels, in the requested order 5, 3, 2, 1, 4
